# assay system: recombinant cynomolgus monkey CD3ε/δ heterodimer (cynomolgus monkey) (UniProt Q95LI5)
# Sequence (Q95LI5 22-117, stated change not applied, chain 1 of 2): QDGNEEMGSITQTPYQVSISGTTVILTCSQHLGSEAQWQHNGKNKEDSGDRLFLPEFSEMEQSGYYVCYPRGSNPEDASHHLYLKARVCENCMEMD
# Sequence (Q95LI8 22-105, stated change not applied, chain 2 of 2, further chain): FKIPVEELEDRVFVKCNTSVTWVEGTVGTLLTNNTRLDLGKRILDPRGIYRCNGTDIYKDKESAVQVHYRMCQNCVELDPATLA
# protocol: BLI (Octet), antigen on anti-Penta His sensor, antibody 50 nM
property measured: koff (s⁻¹)
Give the quantity in s⁻¹, number only.

What does the data say about its koff? Entry: D16 (antibody, human IgG1, lambda, L234A L235A, V domains shown) VH: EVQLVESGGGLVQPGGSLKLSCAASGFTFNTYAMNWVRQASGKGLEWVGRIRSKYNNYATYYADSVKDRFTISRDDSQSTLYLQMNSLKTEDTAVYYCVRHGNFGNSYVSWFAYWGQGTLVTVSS VL: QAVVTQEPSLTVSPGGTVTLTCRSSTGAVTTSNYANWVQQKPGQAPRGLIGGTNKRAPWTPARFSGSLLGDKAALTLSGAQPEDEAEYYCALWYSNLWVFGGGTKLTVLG
0.000217

What does the data say about its koff? Entry: A15 (antibody, human IgG1, lambda, L234A L235A, V domains shown) VH: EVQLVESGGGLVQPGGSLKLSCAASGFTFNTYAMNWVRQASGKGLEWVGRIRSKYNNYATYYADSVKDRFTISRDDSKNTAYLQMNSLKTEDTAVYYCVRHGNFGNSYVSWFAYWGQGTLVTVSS VL: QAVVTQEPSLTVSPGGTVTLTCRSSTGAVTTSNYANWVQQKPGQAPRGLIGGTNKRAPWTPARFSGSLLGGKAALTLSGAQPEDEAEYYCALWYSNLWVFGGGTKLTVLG
0.000165

What does the data say about its koff? Entry: C16 (antibody, human IgG1, lambda, L234A L235A, V domains shown) VH: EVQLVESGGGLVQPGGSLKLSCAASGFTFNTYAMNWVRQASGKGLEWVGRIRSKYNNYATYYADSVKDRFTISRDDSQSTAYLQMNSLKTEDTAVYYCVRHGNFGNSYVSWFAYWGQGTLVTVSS VL: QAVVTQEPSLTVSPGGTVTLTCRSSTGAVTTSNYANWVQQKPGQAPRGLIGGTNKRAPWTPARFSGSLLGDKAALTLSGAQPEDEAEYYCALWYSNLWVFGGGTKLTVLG
0.000341
